assay: yeast display, Sf9 membrane polyspecificity reagent, FACS + sequencing; frameworks hold sequencing errors
measured property: polyreactivity (PSR sort gate)

Use these answered entries as a reference point.
{"ordered residues": "QVQLVESGGRLVQAGGSLRLSWAASGITFFVNAMGWYRPAPGKERELVAVISRGDSTNYADSVKGRFTISRDNAKNTVYLLMNSLKPEDTAVYYCAADGSRAGLEGNDYWGQGTQVSVSS", "polyreactivity (PSR sort gate)": "low polyreactivity"}
{"ordered residues": "QDQLVESGGGLVQAGVSLRLSCAASGIISSDNAMGWYRQAPGKERELVAAITVSGGSTYYADSVKRRFTISRDNAKNTVYFQMNSLKPEDTAVYYCAADYSLEYGFDYWGQGTQVSVSS", "polyreactivity (PSR sort gate)": "low polyreactivity"}
{"ordered residues": "QVQLGESGEGLVQAGGSLRLSCAASGFTCGYYTMGLYRQAPGKERELVAAISSSGGRTYYADSVKGRFTISRDNAKNSVYFQMNSLKPEDTAVYYCNVYYISTDLYYWGQGTQVTVSS", "polyreactivity (PSR sort gate)": "high polyreactivity"}
{"ordered residues": "QVQLVESGGGLVQAGGSLRLSCAASGLTFSPNAMGWYRQAPRKERELVAAISSSGGRTNYADSVKGRFTISRDNAKNTVYLQMNSLKPEDTAFYYCAARFYKTYPRMNYWGQGTQVTVSS", "polyreactivity (PSR sort gate)": "high polyreactivity"}
{"ordered residues": "QVQLVESGGGLVQAGGSLRLSCAASGSTFYNYAMGWYRQAPGKERELVASITWNGGSTYYADSVKGRFTISRDNAKNTVYLQMNSLKPEDTAVYYCAADWTWTYPYDYWGQGTQVTVSS", "polyreactivity (PSR sort gate)": "low polyreactivity"}

Request: Return reported polyreactivity (PSR sort gate). Input sequence: `QVQLVESGGGLVQAGGSLRLSCAASGRTFRYNTMGWYRQAPGKERELVARITRSGGSTYYADSVKGRFTISRDNAKNTVYLQMNSLKPEDTAVYYCAAVPILVYRWFQSYTGDYDYWGQGTQVTVSS`
Response: low polyreactivity

Request: Please give measured polyreactivity (PSR sort gate) of the following entry: `QVQLVESGGGLVQAGGSLRLSCAASGLTFGVNAMGWYRQAPGKERELVAVITSGGNTYYADSVKGRFTISRDNAKNTVYLQMNSLKPEDTAVYYCAAYGRASWERDYWGQGTQVTVSS`
Response: low polyreactivity

Request: Report measured polyreactivity (PSR sort gate); entry is `QVQLVESRGGLVQAGGSLGLSCAASGRIFSGYAMGWYRKAPGKERELVAAISGSGGTTYYADSVKGRFTISRDNAKNTVYLQINSLKPEDTAVYYCAVVIGVGYGYYYWGQGTQVTVSS`
Response: low polyreactivity

Request: # return recorded polyreactivity (PSR sort gate) for input `QVQLVESGGGLVQAGGSLRLSCAASGSIFHYNSMGWDRQAPGKEWGLVASMSSGGRTYYADSVKGRFTISRDNPKNTVYLQMNSLKPDDTAVYYCAAEYYQTTYVWWTYDYYGGQGTQVTVSS`
Response: low polyreactivity

Request: Identify measured polyreactivity (PSR sort gate) associated with `QVQLVESGGGLVQAGGSLRLSCAASVYIFQSNVMGWYRQAPGKESELLAAITVSGGSTYYADSVKGRFTISRDNGKNTVYLQMKSLKPEDTAVYYCNKVGVKFRVDGWYDYWGQATQVTVSS`
Response: high polyreactivity

Request: Give a short answer stating reported polyreactivity (PSR sort gate) for `QVQLVESGGGLVQAGGSLRLSCAASGRTFAYNAMGWYRQAPGKERELVASITSGGSTNYSDSVKGRFTISRDNAKNTVYLQMNSLKPEDTAVYYCNKDGKYHRVLYDYCGQGTQVTVSS` .
Response: low polyreactivity
